- System: CDK6/CycD1 (Homo sapiens, UniProt Q00534)
- Sequence (Q00534 whole entry, species assumed): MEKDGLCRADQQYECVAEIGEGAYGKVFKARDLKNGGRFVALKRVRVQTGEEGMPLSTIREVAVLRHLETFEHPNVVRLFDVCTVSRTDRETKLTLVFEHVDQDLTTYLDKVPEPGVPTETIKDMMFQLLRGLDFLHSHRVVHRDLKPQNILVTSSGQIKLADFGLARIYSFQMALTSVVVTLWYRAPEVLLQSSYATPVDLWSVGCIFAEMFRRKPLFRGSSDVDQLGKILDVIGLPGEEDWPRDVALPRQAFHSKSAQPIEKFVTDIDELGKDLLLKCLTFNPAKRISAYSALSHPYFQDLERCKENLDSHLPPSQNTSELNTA
- Sequence (P24385 whole entry partner, species assumed): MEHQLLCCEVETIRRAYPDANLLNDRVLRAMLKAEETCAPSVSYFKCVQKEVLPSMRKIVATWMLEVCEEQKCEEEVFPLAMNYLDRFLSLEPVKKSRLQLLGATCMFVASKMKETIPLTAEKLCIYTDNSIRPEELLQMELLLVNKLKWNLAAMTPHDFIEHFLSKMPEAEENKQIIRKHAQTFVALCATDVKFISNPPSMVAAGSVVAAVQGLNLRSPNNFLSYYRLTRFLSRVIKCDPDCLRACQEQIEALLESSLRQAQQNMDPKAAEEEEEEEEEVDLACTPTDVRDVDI
- Assay overview: Enzyme activity test;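 also: values come from the source column headed CDK6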
Known IC50 of a selection of compounds
Readout type: IC50

input_smiles=C[C@@]1(O)CCC[C@H]1n1c(=O)c(OC(F)F)cc2cnc(NC3CCN(S(=O)(=O)c4cccnc4)CC3)nc21 readout_type=IC50 assay_value="< 10 nM"
input_smiles=C[C@@]1(O)CCC[C@H]1n1c(=O)c(OC(F)F)cc2cnc(NC3CCN(S(=O)(=O)c4ccc(C#N)cc4)CC3)nc21 readout_type=IC50 assay_value="< 10 nM"
input_smiles=C[C@@]1(O)CCC[C@H]1n1c(=O)c(OC(F)F)cc2cnc(Nc3ccc4c(c3)CN(S(C)(=O)=O)C4)nc21 readout_type=IC50 assay_value="< 10 nM"
